Residues, ends and D or L forms follow the SMILES beside them. *: point of attachment. Tos = Cc1ccc(S(=O)(=O)*)cc1; OtBu = CC(C)(C)O*
What melting point was measured for each of the following?

# input Given the entry CCOC(=O)c1nccn1C1Cc2ccc(Cl)cc2C1=O (stereo not drawn) , report its measured melting point.
# output 180 °C

# input So what does the record say about melting point for `COc1cc2c(cc1-c1ccc(F)cc1C)NC(=O)CC(c1cccc(-n3ccnc3)c1)=N2` ?
# output 225 °C

# input Return reported melting point; argument: `CC(=O)c1cc(C(=O)O)c(=O)[nH]c1C`
# output 238 to 241 °C

# input Which melting point is reported for this compound? `CCOC(=O)c1c(N)c(C)c(C)n1C`
# output 63 to 64 °C

# input What does the data say about its melting point? Entry: `CN(C=O)c1ccc2[nH]cc(CC#N)c2c1`
# output 118 to 120 °C

# input // melting point lookup, key: CCCCCCCCCCCCCCOCc1ccc(C=C2C(=O)C3(C)CCC2C3(C)C)cc1 (stereo not drawn)
# output 35 °C

# input Using the record for `COc1cc2c(c3c1OC(C)(C)C3)C(c1ccn(Cc3ccc(C(=O)Nc4ccncc4)cc3)c(=O)c1)=NC(C)(C)C2` , report its melting point.
# output 144 to 146 °C

# input Tell me the measured melting point of Cc1ccc(S(=O)(=O)N2CCC[C@H]2C(=O)N[C@@H](CC(=O)OC(C)(C)C)C(=O)O)cc1 (Tos-Pro-Asp(OtBu)-OH) , please.
# output 153 to 155 °C

# input What value of melting point has been recorded for this entry: `CCc1cc(N2CCCCC2)c(S(C)(=O)=O)cc1C(=O)N=C(N)N`
# output 218 to 220 °C

# input I have this compound here, CC(CC(F)(F)CC(Cl)(CO)CO)C1CCC2C3CC=C4CC(O)CCC4(C)C3CCC12C (stereo not drawn) , and I need its recorded melting point.
# output 152 to 153 °C

# input Requested read-out: melting point. Entry: CNC(=O)CC(SC(C)=O)C(CC(C)C)C(=O)NC(Cc1ccc(OC)cc1)C(=O)NC (stereo not drawn)
# output 195 to 199 °C

# input # get_value(readout='melting point', item= `NS(=O)(=O)c1ccc(-c2c(-c3ccccc3)noc2COCC(F)(F)C(F)(F)CO[N+](=O)[O-])cc1` )
# output 46 °C

# input Using the record for CC(C#N)S[C@H](C)[C@](O)(Cn1cncn1)c1ccc(F)cc1F (stereo partly drawn) , report its melting point.
# output 66 to 68 °C

# input Could you share which melting point value was measured for `Cn1ncc(C(=O)N2CCC2)c1C(=O)Nc1ccc2nc(-c3ccccc3)nn2c1` ?
# output 235 to 236 °C

# input What value of measured melting point is listed for `CCOC(=O)C(C(=O)OCC)n1cccc1C(=O)C(Cl)(Cl)Cl` ?
# output 67 to 69 °C

# input May I ask what melting point has been recorded for `CCc1[nH]n(C2CCCC2)c2nc(Cc3ccncc3)nc(=O)c1-2` ?
# output 162 to 164 °C

# input Form field: reported melting point of `Cc1noc(NS(=O)(=O)c2cc(Br)c(Cl)s2)c1Br`
# output 143 to 145 °C

# input melting point for `COc1ccc(Nc2cc(-c3ccc(F)cc3)nc3ccccc23)cc1Cl` ?
# output 260 °C

# input Quick one: melting point of CC1COc2c(F)c(F)cc3c(=O)[nH]c(=O)n1c23 (stereo not drawn) ?
# output 259 to 261 °C

# input Form field: reported melting point of `Fc1ccc(-c2cc(C(F)(F)F)n3ncc(-c4ccccn4)c3n2)cc1Cl`
# output 197 °C

# input Consider the compound shown here: `COc1cc2c(c3c1OC(C)(C)C3)C(c1ccn(CC(=O)NCC(N)=O)c(=O)c1)=NC(C)(C)C2` What is its recorded melting point?
# output 166 to 168 °C

# input Query (compound): CN(C)C1(Cc2ccccc2)CCC(c2[nH]c3ccccc3c2CC2CCCCC2)CC1 (stereo not drawn) ; field requested: melting point
# output 120 to 126 °C

# input Which melting point value is on record for `CC(C)(C)c1ccc(-c2ccc(C(CCC(=O)O)=NO)cc2)cc1` ?
# output 170 to 172 °C
